assay: Toxicity to KHYG1 NK cells (Trypan blue exclusion); assay type: cell-based, human; conditions: human, viability of KHYG1 NK cells after 24 h, n = 3

| smiles.data | unit.string | viability at 24 h, 10 µM |
| --- | --- | --- |
| CN1Cc2cc(-c3ccc(-c4cncc(NS(=O)(=O)c5cc(C(F)(F)F)cc(C(F)(F)F)c5)c4)s3)ccc2C1=O | % | 90.2 |
| CN1Cc2cc(-c3ccc(-c4cnc(F)c(NS(=O)(=O)c5ccc(F)cc5F)c4)s3)ccc2C1=O | % | 92 |
| Cc1ccc(S(=O)(=O)Nc2ccccn2)cc1-c1ccc(-c2ccc3c(c2)CN(C)C3=O)s1 | % | 96.1 |
| CN1Cc2cc(-c3ccc(-c4cncc(NS(=O)(=O)c5ccccc5[N+](=O)[O-])c4)s3)ccc2C1=O | % | 98.7 |

----------
target: perforin delivered by KHYG1 NK cells (Homo sapiens); construct: The use of whole NK cells to deliver perforin provides a more realistic model of conditions in vivo; endogenous in cells; host or cells: KHYG1 human NK cells (effector); K562 leukemia target cells; experiment: KHYG1 inhibitory assay: lysis of 51Cr-labelled K562 target cells by KHYG1 NK cells; assay type: cell-based; details: 51Cr-labelled K562 target cells co-incubated with KHYG1 human NK cells, vs untreated control, n = 4
Sequence (P14222 22-555): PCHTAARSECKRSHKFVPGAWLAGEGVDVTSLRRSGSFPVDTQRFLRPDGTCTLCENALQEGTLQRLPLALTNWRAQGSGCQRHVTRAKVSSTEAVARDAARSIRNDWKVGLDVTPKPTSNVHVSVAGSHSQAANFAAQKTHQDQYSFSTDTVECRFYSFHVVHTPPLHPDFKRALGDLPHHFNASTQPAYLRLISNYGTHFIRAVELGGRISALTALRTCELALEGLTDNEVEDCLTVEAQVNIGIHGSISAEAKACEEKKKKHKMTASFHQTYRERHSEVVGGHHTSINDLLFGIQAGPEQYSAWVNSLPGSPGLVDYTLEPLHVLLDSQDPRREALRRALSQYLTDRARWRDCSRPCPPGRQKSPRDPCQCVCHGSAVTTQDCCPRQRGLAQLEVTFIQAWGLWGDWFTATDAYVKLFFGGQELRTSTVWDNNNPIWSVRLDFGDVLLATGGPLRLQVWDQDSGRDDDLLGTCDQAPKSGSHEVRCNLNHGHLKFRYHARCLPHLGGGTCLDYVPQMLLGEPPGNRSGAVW
Label 1 when inhibition at 10 µM >= 70%; otherwise 0.

| smiles.data | cat |
| --- | --- |
| CN1Cc2cc(-c3ccc(-c4cnc(F)c(NS(=O)(=O)c5ccc(F)cc5F)c4)s3)ccc2C1=O | 1 |
| CN1Cc2cc(-c3ccc(-c4cncc(NS(=O)(=O)c5ccc(C#N)cc5)c4)s3)ccc2C1=O | 1 |
| CN1Cc2cc(-c3ccc(-c4cncc(NS(=O)(=O)c5cccc(C(F)(F)F)c5)c4)s3)ccc2C1=O | 1 |
| CN1Cc2cc(-c3ccc(-c4cc(NS(=O)(=O)c5ccccn5)ccc4F)s3)ccc2C1=O | 0 |
| CN1Cc2cc(-c3ccc(-c4cncc(NS(=O)(=O)c5cc(C(F)(F)F)cc(C(F)(F)F)c5)c4)s3)ccc2C1=O | 0 |
| CN1Cc2cc(-c3ccc(-c4cncc(NS(=O)(=O)c5ccc(F)cc5F)c4)s3)ccc2C1=O | 0 |
| CN1Cc2cc(-c3ccc(-c4cncc(NS(=O)(=O)c5ccc([N+](=O)[O-])cc5)c4)s3)ccc2C1=O | 1 |
| CN1Cc2cc(-c3ccc(-c4cncc(NS(=O)(=O)c5ccccc5[N+](=O)[O-])c4)s3)ccc2C1=O | 1 |
| CN1Cc2cc(-c3ccc(-c4cnc(Cl)c(NS(=O)(=O)c5ccc(F)cc5F)c4)s3)ccc2C1=O | 1 |
| CN1Cc2cc(-c3ccc(-c4cncc(NS(=O)(=O)c5c(F)cc(F)cc5F)c4)s3)ccc2C1=O | 1 |
| Cc1ccc(S(=O)(=O)Nc2ccccn2)cc1-c1ccc(-c2ccc3c(c2)CN(C)C3=O)s1 | 0 |
| CN1Cc2cc(-c3ccc(-c4cncc(NS(=O)(=O)c5ccc(S(C)(=O)=O)cc5)c4)s3)ccc2C1=O | 0 |
| Cc1ccc(NS(=O)(=O)c2ccc(F)cc2F)cc1-c1ccc(-c2ccc3c(c2)CN(C)C3=O)s1 | 0 |
| CN1Cc2cc(-c3ccc(-c4cncc(NS(=O)(=O)c5cccc(C#N)c5)c4)s3)ccc2C1=O | 1 |
| CN1Cc2cc(-c3ccc(-c4cncc(NS(=O)(=O)c5ccccc5C(F)(F)F)c4)s3)ccc2C1=O | 1 |

----------
experiment: Microsome stability, mouse; format: in vitro ADME; conditions: parent (as sodium salt) remaining after 30 min, mouse microsomes
readout.name: Microsome Stability (%) Mouse

| molecule | readout.name | value.reported |
| --- | --- | --- |
| CN1Cc2cc(-c3ccc(-c4cncc(NS(=O)(=O)c5ccccc5C(F)(F)F)c4)s3)ccc2C1=O [Compound 44] | Microsome Stability (%) Mouse | 84 |
| CN1Cc2cc(-c3ccc(-c4cncc(NS(=O)(=O)c5cccc(C(F)(F)F)c5)c4)s3)ccc2C1=O [Compound 45] | Microsome Stability (%) Mouse | 97 |
| CN1Cc2cc(-c3ccc(-c4cncc(NS(=O)(=O)c5c(F)cc(F)cc5F)c4)s3)ccc2C1=O [Compound 26] | Microsome Stability (%) Mouse | 100 |
| CN1Cc2cc(-c3ccc(-c4cnc(Cl)c(NS(=O)(=O)c5ccc(F)cc5F)c4)s3)ccc2C1=O [Compound 11] | Microsome Stability (%) Mouse | 97 |
| CN1Cc2cc(-c3ccc(-c4cncc(NS(=O)(=O)c5ccc([N+](=O)[O-])cc5)c4)s3)ccc2C1=O [Compound 59] | Microsome Stability (%) Mouse | 85 |
| CN1Cc2cc(-c3ccc(-c4cncc(NS(=O)(=O)c5ccc(C#N)cc5)c4)s3)ccc2C1=O [Compound 50] | Microsome Stability (%) Mouse | 87 |
| CN1Cc2cc(-c3ccc(-c4cnc(F)c(NS(=O)(=O)c5ccc(F)cc5F)c4)s3)ccc2C1=O [Compound 10] | Microsome Stability (%) Mouse | 96 |
| CN1Cc2cc(-c3ccc(-c4cncc(NS(=O)(=O)c5ccccc5[N+](=O)[O-])c4)s3)ccc2C1=O [Compound 58] | Microsome Stability (%) Mouse | 100 |

----------
assay: Solubility of the sodium salt in water; format: physicochemical; details: sodium salt in water at room temperature

| compound | Solubility |
| --- | --- |
| CN1Cc2cc(-c3ccc(-c4cncc(NS(=O)(=O)c5c(F)cc(F)cc5F)c4)s3)ccc2C1=O [Compound 26] | highly soluble |
| CN1Cc2cc(-c3ccc(-c4cncc(NS(=O)(=O)c5ccc(C#N)cc5)c4)s3)ccc2C1=O [Compound 50] | highly soluble |

----------
assay: Stability in solution (water, 20 °C, 24 h); format: physicochemical; conditions: sodium salt, 24 h at 20 °C in water
Below, each entry is listed with its recorded Stability in Solution (% parent remaining).
readout.name: Stability in Solution (% parent remaining) (%)

| smiles.data | value.reported |
| --- | --- |
| CN1Cc2cc(-c3ccc(-c4cncc(NS(=O)(=O)c5ccc(C#N)cc5)c4)s3)ccc2C1=O | 85 |
| CN1Cc2cc(-c3ccc(-c4cncc(NS(=O)(=O)c5c(F)cc(F)cc5F)c4)s3)ccc2C1=O | 88 |
| CN1Cc2cc(-c3ccc(-c4cnc(F)c(NS(=O)(=O)c5ccc(F)cc5F)c4)s3)ccc2C1=O | 100 |
| CN1Cc2cc(-c3ccc(-c4cncc(NS(=O)(=O)c5ccccc5C(F)(F)F)c4)s3)ccc2C1=O | 92 |
| CN1Cc2cc(-c3ccc(-c4cncc(NS(=O)(=O)c5ccccc5[N+](=O)[O-])c4)s3)ccc2C1=O | 100 |
| CN1Cc2cc(-c3ccc(-c4cnc(Cl)c(NS(=O)(=O)c5ccc(F)cc5F)c4)s3)ccc2C1=O | 100 |

----------
Where a name gives a salt, the structure may show the parent alone.
readout.name: melting point

| compound | readout.name | value.reported |
| --- | --- | --- |
| CN1Cc2cc(-c3ccc(-c4cncc(NS(=O)(=O)c5ccc(-c6cnco6)cc5)c4)s3)ccc2C1=O [Compound 70] | melting point | 278 to 281 °C |
| CN1Cc2cc(-c3ccc(-c4cncc(NS(=O)(=O)c5cccc(C#N)c5)c4)s3)ccc2C1=O [Compound 49] | melting point | 282 to 285 °C |
| COc1ncc(-c2ccc(-c3ccc4c(c3)CN(C)C4=O)s2)cc1NS(=O)(=O)c1ccc(F)cc1F [Compound 12] | melting point | 224 to 227 °C |
| Cc1cc(F)ccc1S(=O)(=O)Nc1cncc(-c2ccc(-c3ccc4c(c3)CN(C)C4=O)s2)c1 [Compound 61] | melting point | 280 to 283 °C |
| COC(=O)c1ccc(S(=O)(=O)Nc2cncc(-c3ccc(-c4ccc5c(c4)CN(C)C5=O)s3)c2)cc1 [Compound 53] | melting point | 269 to 272 °C |
| CN1Cc2cc(-c3ccc(-c4cncc(NS(=O)(=O)c5ccc(OC(F)(F)F)cc5)c4)s3)ccc2C1=O [Compound 43] | melting point | 293 to 296 °C |
| COC(=O)c1ccccc1S(=O)(=O)Nc1cncc(-c2ccc(-c3ccc4c(c3)CN(C)C4=O)s2)c1 [Compound 51] | melting point | 209 to 212 °C |
| Cc1ccc(S(=O)(=O)Nc2cncc(-c3ccc(-c4ccc5c(c4)CN(C)C5=O)s3)c2)cc1Cl [Compound 63] | melting point | 277 to 279 °C |
| CCOC(=O)c1ccc(S(=O)(=O)Nc2cncc(-c3ccc(-c4ccc5c(c4)CN(C)C5=O)s3)c2)cc1 [Compound 54] | melting point | 272 to 275 °C |
| CN1Cc2cc(-c3ccc(-c4cncc(NS(=O)(=O)c5ccccc5C#N)c4)s3)ccc2C1=O [Compound 48] | melting point | > 310 °C |
| CN1Cc2cc(-c3ccc(-c4cncc(NS(=O)(=O)c5ccccc5Cl)c4)s3)ccc2C1=O [Compound 27] | melting point | 299 to 303 °C |
| CN1Cc2cc(-c3ccc(-c4cncc(NS(=O)(=O)c5cccc(F)c5)c4)s3)ccc2C1=O [Compound 23] | melting point | 292 to 294 °C |
| COc1ccc(-c2ccc(-c3ccc4c(c3)CN(C)C4=O)s2)cc1S(=O)(=O)Nc1ccccn1 (as salt: sodium) [Compound 19] | melting point | 322 to 325 °C |
| CN1Cc2cc(-c3ccc(-c4cncc(NS(=O)(=O)c5cccc(Cl)c5)c4)s3)ccc2C1=O [Compound 28] | melting point | 291 to 295 °C |
| Cc1cc(C)n(-c2ccc(S(=O)(=O)Nc3cncc(-c4ccc(-c5ccc6c(c5)CN(C)C6=O)s4)c3)cc2)n1 [Compound 72] | melting point | 265 to 268 °C |
| CN1Cc2cc(-c3ccc(-c4cncc(NS(=O)(=O)c5cc(Br)cc(C(F)(F)F)c5)c4)s3)ccc2C1=O [Compound 65] | melting point | 280 to 283 °C |
| COC(=O)c1cccc(S(=O)(=O)Nc2cncc(-c3ccc(-c4ccc5c(c4)CN(C)C5=O)s3)c2)c1 [Compound 52] | melting point | 250 to 254 °C |
| CN1Cc2cc(-c3ccc(-c4cncc(NS(=O)(=O)c5ccc(S(C)(=O)=O)cc5)c4)s3)ccc2C1=O (as salt: sodium) [Compound 57] | melting point | > 300 °C |
| COc1cccc(S(=O)(=O)Nc2cncc(-c3ccc(-c4ccc5c(c4)CN(C)C5=O)s3)c2)c1 [Compound 38] | melting point | 278 to 280 °C |
| Cc1ccc(NS(=O)(=O)c2ccc(F)cc2F)cc1-c1ccc(-c2ccc3c(c2)CN(C)C3=O)s1 [Compound 13] | melting point | 268 to 271 °C |
| COc1ccc(S(=O)(=O)Nc2cncc(-c3ccc(-c4ccc5c(c4)CN(C)C5=O)s3)c2)cc1OC (as salt: sodium) [Compound 40] | melting point | 240 to 244 °C |
| Cc1ncsc1S(=O)(=O)Nc1cncc(-c2ccc(-c3ccc4c(c3)CN(C)C4=O)s2)c1 [Compound 74] | melting point | 277 to 280 °C |
| CN1Cc2cc(-c3ccc(-c4cccc(S(=O)(=O)Nc5ccccn5)c4)s3)ccc2C1=O (as salt: sodium) [Compound 14] | melting point | 302 to 306 °C |
| COc1ccc(S(=O)(=O)Nc2cncc(-c3ccc(-c4ccc5c(c4)CN(C)C5=O)s3)c2)cc1 [Compound 39] | melting point | 254 to 258 °C |
